Overview of recorded EC50 for various compounds
target: human mGluR5A (Homo sapiens (Human), UniProt P41594); assay: mGluR5 FLIPR Assay; details: positive modulator activity, HEK293 (ZF) cells with human mGluR5A and rat GLAST, Ca++ response to ~EC10 l-glutamate
Sequence (P41594 other isoform, or with tags, fused parts or gaps): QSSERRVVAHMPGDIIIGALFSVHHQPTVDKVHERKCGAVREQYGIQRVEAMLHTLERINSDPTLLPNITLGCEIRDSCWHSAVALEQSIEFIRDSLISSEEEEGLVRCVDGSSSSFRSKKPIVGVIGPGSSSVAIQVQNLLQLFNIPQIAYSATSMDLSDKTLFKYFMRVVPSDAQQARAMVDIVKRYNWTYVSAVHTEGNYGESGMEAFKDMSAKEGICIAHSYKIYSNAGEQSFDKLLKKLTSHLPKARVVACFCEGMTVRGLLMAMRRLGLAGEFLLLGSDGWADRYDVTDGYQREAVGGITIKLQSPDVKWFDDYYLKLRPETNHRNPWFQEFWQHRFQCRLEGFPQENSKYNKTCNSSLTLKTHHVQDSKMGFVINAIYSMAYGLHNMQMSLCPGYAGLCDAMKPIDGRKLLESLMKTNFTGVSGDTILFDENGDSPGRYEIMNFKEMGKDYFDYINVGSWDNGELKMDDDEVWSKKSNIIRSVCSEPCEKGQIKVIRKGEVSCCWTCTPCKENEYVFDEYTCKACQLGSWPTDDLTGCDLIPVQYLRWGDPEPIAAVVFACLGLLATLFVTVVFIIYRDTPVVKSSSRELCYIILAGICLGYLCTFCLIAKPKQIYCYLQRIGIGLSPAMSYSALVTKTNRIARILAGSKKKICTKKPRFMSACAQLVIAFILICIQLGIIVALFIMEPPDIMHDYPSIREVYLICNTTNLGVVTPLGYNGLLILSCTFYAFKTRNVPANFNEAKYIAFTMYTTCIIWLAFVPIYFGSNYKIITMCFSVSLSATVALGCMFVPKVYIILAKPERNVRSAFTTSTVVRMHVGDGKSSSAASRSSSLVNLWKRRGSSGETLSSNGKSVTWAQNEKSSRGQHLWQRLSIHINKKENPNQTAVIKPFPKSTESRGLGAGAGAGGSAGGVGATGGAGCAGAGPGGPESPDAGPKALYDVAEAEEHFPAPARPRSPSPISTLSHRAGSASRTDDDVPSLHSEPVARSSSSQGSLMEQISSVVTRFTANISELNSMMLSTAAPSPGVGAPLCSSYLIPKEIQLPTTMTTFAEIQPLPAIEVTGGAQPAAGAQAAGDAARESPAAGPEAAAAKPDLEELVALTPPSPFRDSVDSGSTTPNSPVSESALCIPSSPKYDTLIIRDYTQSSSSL

{"compound": "CCC(O)CC#Cc1cncc([C@H]2NC(=O)O[C@@H]2c2cccc(F)c2)c1 (stereo partly shown) [Example 21]", "unit info": "nM", "sign": "=", "EC50": 29.5}
{"compound": "O=C1N[C@H](c2cncc(C#CCC3CCOCC3)c2)[C@@H](c2cccc(F)c2)O1 [Example 11]", "unit info": "nM", "sign": "=", "EC50": 13.6}
{"compound": "CCC(O)CC#Cc1cncc([C@H]2NC(=O)O[C@@H]2c2cccc(F)c2)c1 (single isomer, unassigned) [Example 19]", "unit info": "nM", "sign": "=", "EC50": 27.6}
{"compound": "N#Cc1cccc([C@H]2OC(=O)N[C@@H]2c2cncc(C#CC3CC(F)(F)C3)c2)c1 [Example 107]", "unit info": "nM", "sign": "=", "EC50": 280}
{"compound": "CCCC#Cc1cncc([C@H]2NC(=O)O[C@@H]2c2cccc(F)c2)c1 [Example 6]", "unit info": "nM", "sign": "=", "EC50": 5.2}
{"compound": "O=C1N[C@H](c2cncc(C#CCn3cc(Cl)cn3)c2)[C@@H](c2cccc(F)c2)O1 [Example 27]", "unit info": "nM", "sign": "=", "EC50": 48.2}
{"compound": "Cc1cn(CC#Cc2cncc([C@H]3NC(=O)O[C@@H]3c3cccc(F)c3)c2)cn1 [Example 71]", "unit info": "nM", "sign": ">", "EC50": 3230}
{"compound": "O=C1N[C@H](c2cncc(C#CC(O)CC3CC3)c2)[C@@H](c2cccc(F)c2)O1 (stereo partly shown) [Example 72]", "unit info": "nM", "sign": "=", "EC50": 16.6}
{"compound": "CC(C)(C)C#Cc1cncc([C@H]2NC(=O)O[C@@H]2c2cccc(F)c2)c1 [Example 61]", "unit info": "nM", "sign": ">", "EC50": 3230}
{"compound": "CC(=O)NCC#Cc1cncc([C@H]2NC(=O)O[C@@H]2c2cccc(F)c2)c1 [Example 45]", "unit info": "nM", "sign": ">", "EC50": 1610}
{"compound": "CC(O)CCC#Cc1cncc([C@H]2NC(=O)O[C@@H]2c2cccc(F)c2)c1 (single isomer, unassigned) [Example 7]", "unit info": "nM", "sign": "=", "EC50": 5.9}
{"compound": "O=C1N[C@H](c2cncc(C#CC(O)C3CC3)c2)[C@@H](c2cccc(F)c2)O1 (single isomer, unassigned) [Example 57]", "unit info": "nM", "sign": "=", "EC50": 77.3}
{"compound": "CN(C)CCC#Cc1cncc([C@H]2NC(=O)O[C@@H]2c2cccc(F)c2)c1 [Example 44]", "unit info": "nM", "sign": ">", "EC50": 1610}
{"compound": "CC(C)(O)CC#Cc1cncc([C@H]2NC(=O)O[C@@H]2c2cccc(F)c2)c1 [Example 40]", "unit info": "nM", "sign": "=", "EC50": 513}
{"compound": "O=C1N[C@H](c2cncc(C#CCCOCC(F)(F)F)c2)[C@@H](c2cccc(F)c2)O1 [Example 67]", "unit info": "nM", "sign": "=", "EC50": 88.6}
{"compound": "O=C1N[C@H](c2cncc(C#CCNC(=O)C(F)(F)F)c2)[C@@H](c2cccc(F)c2)O1 [Example 48]", "unit info": "nM", "sign": ">", "EC50": 1610}
